Entries annotated with measured MIC
- Test system: Enterococcus faecium
- ASSAY_METHOD_TEXT: Antibacterial activity against vancomycin-resistant Enterococcus faecium 6A after 24 hrs by agar dilution method
- Assay type: functional
Value expressed in µg/mL; do not type the unit.

Answered cases to consult:
molecule=CC(=O)NC[C@H]1CN(c2ccc(N3CCN(c4ccc([N+](=O)[O-])s4)CC3)c(F)c2)C(=O)O1 number=0.25
molecule="CC(=O)NC[C@H]1CN(c2ccc(N3CCN(C(C)c4ccc([N+](=O)[O-])o4)CC3)c(F)c2)C(=O)O1 (stereo partly specified)" number=0.25
molecule=CC(=O)NC[C@H]1CN(c2ccc(N3CCN(c4ccc([N+](=O)[O-])o4)CC3)c(F)c2)C(=O)O1 number=8

Item CC(=O)NC[C@H]1CN(c2ccc(N3CCN(c4ccc([N+](=O)[O-])s4)CC3)cc2)C(=O)O1 ; assay system Enterococcus faecium; MIC reported as 1

Form field, MIC with Enterococcus faecium, item CC(=O)NC[C@H]1CN(c2ccc(N3CCN(C(=O)c4ccc([N+](=O)[O-])o4)CC3)c(F)c2)C(=O)O1 : 1

GET /values?item= CC(=O)NC[C@H]1CN(c2ccc(N3CCOCC3)c(F)c2)C(=O)O1 [LINEZOLID] &system= Enterococcus faecium returns MIC: 2

Lab entry: Enterococcus faecium assay, molecule CC(=O)NC[C@H]1CN(c2ccc(N3CCN(C(=O)c4ccc([N+](=O)[O-])s4)CC3)c(F)c2)C(=O)O1 , MIC = 0.5

Result for CC(=O)NC[C@H]1CN(c2ccc(N3CCN(c4ccc(C=O)s4)CC3)c(F)c2)C(=O)O1 , tested on Enterococcus faecium, MIC: 1

Assay Enterococcus faecium, sample CC(=O)NC[C@H]1CN(c2ccc(N3CCN(C(=O)/C=C/c4ccc([N+](=O)[O-])s4)CC3)c(F)c2)C(=O)O1 , MIC read: 0.5

MIC on Enterococcus faecium for CC(=O)NC[C@H]1CN(c2ccc(N3CCN(Cc4ccc([N+](=O)[O-])o4)CC3)c(F)c2)C(=O)O1.Cl [RANBEZOLID CHLORIDE] is 2

So the reported MIC for CC(=O)NC[C@H]1CN(c2ccc(N3CCN(Cc4ccc([N+](=O)[O-])s4)CC3)c(F)c2)C(=O)O1 , on Enterococcus faecium, turned out to be 8

Form field MIC for item CC(=O)NC[C@H]1CN(c2cc(F)c(N3CCN(c4ccc([N+](=O)[O-])s4)CC3)c(F)c2)C(=O)O1 on Enterococcus faecium: 0.25

Noted MIC for CC(=O)NC[C@H]1CN(c2ccc(N3CCN(C(C)c4ccc([N+](=O)[O-])s4)CC3)c(F)c2)C(=O)O1 (stereo partly specified) , tested on Enterococcus faecium: 0.5
